These measurements were taken from the supplement of paper PMC10037445.

- Test system: RAW-Dual
- METHOD SUMMARY: NF-kB SEAP reporter activity, fold change vs agonist alone; cytotoxicity flag (confluency mask): not cytotoxic; library stock concentration (final ~1000-fold dilution): 10 mM; higher = enhanced NF-kB activity
- TEST SETTINGS: agonist: ODN 1826 (TLR9) 0.5 ug/mL
Whole data set: some 2,900 compounds, median “NF-kB SEAP reporter activity, fold change vs agonist alone” near 0.99, cut for the highest 2% near 2.6. This is one part of a sample in which the highest values are shown more often than they occur.
Given measured NF-kB SEAP reporter activity, output condition met if it is greater than or equal to 1 and condition not met if not.

Worked set:
CCNc1nc(Cl)nc(NC(C)C)n1 | condition met
CN1C2CCC1CC(=O)C2 | condition met
COc1ccc2c(c[n+](C)c3c4cc5c(cc4ccc23)OCO5)c1OC.Cl | condition not met
CN1C2CCC1CC(OC(=O)C(CO)c1ccccc1)C2.CN1C2CCC1CC(OC(=O)C(CO)c1ccccc1)C2.O.O=S(=O)(O)O (stereo unspecified) | condition not met
CCCCCCC[n+]1ccc(-c2cc[n+](CCCCCCC)cc2)cc1 | condition met

q: In plain terms: is recorded NF-kB SEAP reporter activity at least 1 for Cl[Te]1(Cl)(Cl)OCCO1.N ?
a: condition not met

q: Please tell me: is the compound Cc1sc2c(c1C)C(c1ccc(Cl)cc1)=NC(CC(=O)Nc1ccc(O)cc1)c1nnc(C)n1-2 (stereo unspecified) at or over 1 in terms of NF-kB SEAP reporter activity?
a: condition met
